Experiment: NCI Yeast Anticancer Drug Screen. Data for the cln2 rad14 strain (AID 165);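 further: 0% = growth equal to vehicle treated cultures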
Settings: S. cerevisiae cln2 rad14 strain, at 50.0 µM, stronger effect = higher value
Compounds without any hit were thinned out: in the full panel of roughly 79,000, 15% have a hit.
// growth inhibition lookup, one value per entry
Unit % implied. Number only.

Worked cases, growth inhibition given:
>>> result_value("CC(C)(C)c1ccc(SCC#CCOc2ccc(Cl)cc2)cc1")
-23.6
>>> result_value("COC(=O)C1=C(C(=O)OC)N(C(C)C)[C@H]2C(C(=O)OC)=C(C(=O)OC)N(C(C)C)[C@@H]12")
5.75
>>> result_value("ClC1CCCCC1")
-7.95
>>> result_value("N#CC1(N(O)C(=O)Nc2ccccc2)CCCCC1")
-7.05
>>> result_value("OC(CNCCc1ccccc1)COc1cccc2ccccc12 (stereo unspecified)")
98.5
>>> result_value("COc1cc2c(cc1OC)C(C#N)(C(c1ccccc1)c1ccccc1)N(C(=O)c1ccccc1)C=C2 (stereo unspecified)")
-1.15

Would you mind telling me what growth inhibition value was observed for O=S(=O)(c1ccccc1)C1CCCC1 ? -11.8

Consider the molecule Cc1ccc2c(c1)c(C)c(C)c(=O)n2C and give its measured growth inhibition. 13.2
